Please go through the items and note down their Glucose transport inhibition (%).
system: H1299 cells; assay: Standard glucose uptake assay, H1299; format: cell-based, human; details: Table 2; H1299; 30 μM; untreated cells 0% inhibition

Form: item O=C(Oc1cccc(F)c1OC(=O)c1cc(O)cc(O)c1)c1cc(O)cc(O)c1 ; test system H1299 cells; Glucose transport inhibition (%): 94.0 ± 0.8%

Form: item O=C(Oc1cccc(OC(=O)c2cc(O)cc(O)c2)c1OC(=O)c1cc(O)cc(O)c1)c1cc(O)cc(O)c1 ; test system H1299 cells; Glucose transport inhibition (%): 98.7 ± 0.8%

Form: item COc1cc(C(=O)Oc2cccc(F)c2OC(=O)c2cc(OC)c(OC)c(OC)c2)cc(OC)c1OC ; test system H1299 cells; Glucose transport inhibition (%): 7.9 ± 2.6%

Form: item O=C(Oc1cccc(OC(=O)c2ccc(O)c(O)c2)c1OC(=O)c1ccc(O)c(O)c1)c1ccc(O)c(O)c1 ; test system H1299 cells; Glucose transport inhibition (%): 94.7 ± 0.4%

###

test system: H1299 cells; experiment: Standard glucose uptake assay, H1299; type: cell-based, human; conditions: Table 2; H1299; 30 μM; untreated cells 0% inhibition
Observation type: Glucose transport inhibition (%)
Provide a numeric answer, followed by its unit.

Reported Glucose transport inhibition (%) for COc1cccc(OC(=O)c2cc(O)c(O)c(O)c2)c1OC(=O)c1cc(O)c(O)c(O)c1 was 58.4±6.3%

Reported Glucose transport inhibition (%) for O=C(Oc1ccc(Cl)cc1OC(=O)c1ccc(O)c(O)c1)c1ccc(O)c(O)c1 was 94.4 ± 0.4%

Reported Glucose transport inhibition (%) for O=C(Oc1cccc(F)c1OC(=O)c1ccc(O)cc1)c1ccc(O)cc1 was 92.6 ± 0.7%

Reported Glucose transport inhibition (%) for COc1cccc(OC(=O)c2ccc(O)c(O)c2)c1OC(=O)c1ccc(O)c(O)c1 was 0%

###

system: H1299 cells; assay: Standard glucose uptake assay, H1299; type: cell-based, human; conditions: Table 2; H1299; 30 μM; untreated cells 0% inhibition
Please go through the items and note down their Glucose transport inhibition (%).
Write the value in % as a bare number.

Reported Glucose transport inhibition (%) for O=C(Oc1ccc(Cl)cc1OC(=O)c1cc(O)c(O)c(O)c1)c1cc(O)c(O)c(O)c1 was 84.4

Reported Glucose transport inhibition (%) for COc1cccc(C(=O)Oc2cccc(OC)c2OC(=O)c2cccc(OC)c2)c1 was 32.1

Reported Glucose transport inhibition (%) for O=C(Oc1cccc(F)c1OC(=O)c1ccccc1O)c1ccccc1O was 51.0

Reported Glucose transport inhibition (%) for O=C(Oc1ccc(Cl)cc1OC(=O)c1cc(O)cc(O)c1)c1cc(O)cc(O)c1 was 95.2

Reported Glucose transport inhibition (%) for COc1cccc(OC(=O)c2ccccc2O)c1OC(=O)c1ccccc1O was 50.5

Reported Glucose transport inhibition (%) for COc1cc(C(=O)Oc2ccc(Cl)cc2OC(=O)c2cc(OC)c(OC)c(OC)c2)cc(OC)c1OC was 1.7

Reported Glucose transport inhibition (%) for COc1cc(C(=O)Oc2cccc(OC)c2OC(=O)c2cc(OC)c(OC)c(OC)c2)cc(OC)c1OC was 33.3

Reported Glucose transport inhibition (%) for O=C(Oc1ccc(Cl)cc1OC(=O)c1ccccc1O)c1ccccc1O was 51.6

###

test system: H1299 cells; assay: Standard glucose uptake assay, H1299; assay type: cell-based, human; settings: Table 2; H1299; 30 μM; untreated cells 0% inhibition
Observation type: Glucose transport inhibition (%)
Write the value in % as a bare number.

Reported Glucose transport inhibition (%) for O=C(Oc1ccccc1OC(=O)c1ccc(O)cc1)c1ccc(O)cc1 [Compound 1q] was 57.5

Reported Glucose transport inhibition (%) for O=C(Oc1ccccc1OC(=O)c1cc(O)c(O)c(O)c1)c1cc(O)c(O)c(O)c1 [Compound 1d] was 32.1

Reported Glucose transport inhibition (%) for O=C(Oc1cccc(F)c1OC(=O)c1cc(O)c(O)c(O)c1)c1cc(O)c(O)c(O)c1 [Compound 1c] was 81.1

Reported Glucose transport inhibition (%) for O=C(Oc1cccc(OC(=O)c2ccccc2O)c1OC(=O)c1ccccc1O)c1ccccc1O [Compound 2d] was 74.7

Reported Glucose transport inhibition (%) for COc1cccc(OC(=O)c2ccc(O)cc2)c1OC(=O)c1ccc(O)cc1 [Compound 1n] was 86.5

Reported Glucose transport inhibition (%) for O=C(Oc1cccc(F)c1OC(=O)c1ccc(O)c(O)c1)c1ccc(O)c(O)c1 [Compound 1j] was 88.7

Reported Glucose transport inhibition (%) for O=C(Oc1ccc(Cl)cc1OC(=O)c1ccc(O)cc1)c1ccc(O)cc1 [Compound 1o] was 79.0

Reported Glucose transport inhibition (%) for COc1cccc(OC(=O)c2cc(O)cc(O)c2)c1OC(=O)c1cc(O)cc(O)c1 [Compound 1e] was 69.4
